molecular target: Neu5Ac(a2-8)Neu5Ac(a2-8)Neu5Ac(a2-3)[GalNAc(b1-4)]Gal(b1-4)Glc; assay: glycan array binding signal (z-score within array); higher = stronger binding; conditions: glycan notation: IUPAC condensed, linker removed
This is one part of a sample in which the strongest signals are shown more often than they occur.
Note to self: values exactly at -0.2 are satisfied. So glycan array binding signal (z-score) at or above -0.2 is satisfied, below is not satisfied.

Solved entries:
Gal 8 (Homo sapiens), O00214_1 (protein) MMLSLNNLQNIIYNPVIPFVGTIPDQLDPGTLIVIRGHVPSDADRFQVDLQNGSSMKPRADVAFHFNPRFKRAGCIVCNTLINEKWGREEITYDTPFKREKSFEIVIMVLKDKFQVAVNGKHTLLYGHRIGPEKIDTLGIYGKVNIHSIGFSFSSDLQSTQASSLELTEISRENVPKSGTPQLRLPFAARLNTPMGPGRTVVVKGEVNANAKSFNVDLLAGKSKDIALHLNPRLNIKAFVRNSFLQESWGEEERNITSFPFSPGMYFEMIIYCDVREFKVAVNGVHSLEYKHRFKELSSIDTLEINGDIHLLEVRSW | satisfied
MAA (Maackia amurensis), P0DKL3 (protein) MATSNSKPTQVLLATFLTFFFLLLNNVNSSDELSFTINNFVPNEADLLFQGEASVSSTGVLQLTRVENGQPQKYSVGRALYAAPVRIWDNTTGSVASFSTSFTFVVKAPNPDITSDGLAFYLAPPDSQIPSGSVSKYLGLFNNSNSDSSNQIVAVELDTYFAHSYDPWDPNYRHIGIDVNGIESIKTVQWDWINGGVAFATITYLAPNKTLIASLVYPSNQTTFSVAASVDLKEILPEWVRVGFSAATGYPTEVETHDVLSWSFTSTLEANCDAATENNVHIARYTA | satisfied
L-Selectin (Homo sapiens), P14151 (protein) MIFPWKCQSTQRDLWNIFKLWGWTMLCCDFLAHHGTDCWTYHYSEKPMNWQRARRFCRDNYTDLVAIQNKAEIEYLEKTLPFSRSYYWIGIRKIGGIWTWVGTNKSLTEEAENWGDGEPNNKKNKEDCVEIYIKRNKDAGKWNDDACHKLKAALCYTASCQPWSCSGHGECVEIINNYTCNCDVGYYGPQCQFVIQCEPLEAPELGTMDCTHPLGNFSFSSQCAFSCSEGTNLTGIEETTCGPFGNWSSPEPTCQVIQCEPLSAPDLGIMNCSHPLASFSFTSACTFICSEGTELIGKKKTICESSGIWSNPSPICQKLDKSFSMIKEGDYNPLFIPVAVMVTAFSGLAFIIWLARRLKKGKKSKRSMNDPY | not satisfied
BTL (Bryothamnion triquetrum) (protein) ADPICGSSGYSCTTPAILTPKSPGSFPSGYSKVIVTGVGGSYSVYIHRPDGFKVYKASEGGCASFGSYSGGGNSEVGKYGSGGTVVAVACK | not satisfied
CALR truncated at D342 (Homo sapiens) (protein) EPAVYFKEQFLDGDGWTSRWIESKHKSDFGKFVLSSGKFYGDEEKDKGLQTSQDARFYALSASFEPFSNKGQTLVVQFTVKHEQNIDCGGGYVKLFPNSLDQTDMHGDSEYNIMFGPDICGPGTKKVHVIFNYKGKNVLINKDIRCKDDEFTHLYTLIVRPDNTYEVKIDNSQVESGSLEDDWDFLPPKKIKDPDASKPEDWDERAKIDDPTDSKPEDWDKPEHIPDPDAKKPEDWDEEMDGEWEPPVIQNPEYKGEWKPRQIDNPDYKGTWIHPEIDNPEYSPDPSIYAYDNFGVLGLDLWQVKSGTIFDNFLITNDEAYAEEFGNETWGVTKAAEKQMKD | not satisfied

# input Does rMpL (Macrolepiota procera) (protein) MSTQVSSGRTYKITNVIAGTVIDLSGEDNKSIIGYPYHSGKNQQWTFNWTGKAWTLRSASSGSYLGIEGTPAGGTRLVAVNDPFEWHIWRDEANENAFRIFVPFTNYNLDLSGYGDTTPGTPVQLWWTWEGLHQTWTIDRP have a reported glycan array binding signal (z-score) of at least -0.2?
# output satisfied

# input Now give it for NcCVNHO (Neurospora crassa), Q7S6U4 (protein) MSFHVTAEDARIEVRDNRTILFARLRREDGEWNDASYELDQIIGNNDGHFQWGGQNFTETAEDIRFHPKEGAAEQPILRARLRDCNGEFHDRDVNLTEIVENVNGEFQAKF too.
# output not satisfied

# input Now the same for Ficolin A (Rattus norvegicus), Q9WTS8 (protein) MWWPMLWAFPVLLCLCSSQALGQESGACPDVKIVGLGAQDKVAVIQSCPSFPGPPGPKGEPGSPAGRGERGLQGSPGKMGPPGSKGEPGTMGPPGVKGEKGERGTASPLGQKELGDALCRRGPRSCKDLLTRGIFLTGWYTIYLPDCRPLTVLCDMDVDGGGWTVFQRRVDGSINFYRDWDSYKRGFGNLGTEFWLGNDYLHLLTANGNQELRVDLREFQGQTSFAKYSSFQVSGEQEKYKLTLGQFLEGTAGDSLTKHNNMAFSTHDQDNDTNGGKNCAALFHGAWWYHDCHQSNLNGRYLPGSHESYADGINWLSGRGHRYSYKVAEMKIRAS
# output satisfied

# input Now this one: Lb MiSSP8 (Laccaria bicolor) (protein) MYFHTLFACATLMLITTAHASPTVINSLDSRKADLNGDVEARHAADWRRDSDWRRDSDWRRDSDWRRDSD
# output not satisfied

# input Entry to check: CD83 (Homo sapiens) (protein) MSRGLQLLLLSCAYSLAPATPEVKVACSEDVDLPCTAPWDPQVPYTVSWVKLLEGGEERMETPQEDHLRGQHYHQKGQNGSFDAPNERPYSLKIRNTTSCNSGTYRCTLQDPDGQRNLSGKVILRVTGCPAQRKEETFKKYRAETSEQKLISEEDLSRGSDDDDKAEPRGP
# output satisfied
